Species: Rattus norvegicus
Assay: Open TG-GATES - Regimen: Daily Repeat
Assay type: toxicity, organism-based, Sprague-Dawley
Design: regimen Daily Repeat, gender Male, age 6 weeks
Details: in vivo, po, 300 mg/kg, […], tissue Plasma, route gavage, dose level Middle, time 28 day
OBSERVABLE: BUN (mg/dL)

COMPOUND	OBSERVABLE	MEASURED_RESULT
CCOC(=O)CCC(=O)O[C@H]1[C@H](O[C@@H]2[C@@H](C)[C@H](O[C@H]3C[C@@](C)(OC)[C@@H](O)[C@H](C)O3)[C@@H](C)C(=O)O[C@H](CC)[C@@](C)(O)[C@H](O)[C@@H](C)C(=O)[C@H](C)C[C@@]2(C)O)O[C@H](C)C[C@@H]1N(C)C [ERYTHROMYCIN ETHYLSUCCINATE]	BUN	19.6
CCOc1ccc(NC(=O)CC(C)O)cc1 (stereo not given)	BUN	15.2
COc1ccc2[nH]c([S+]([O-])Cc3ncc(C)c(OC)c3C)nc2c1 (stereo not given)	BUN	15.6
NC(N)=Nc1nc(CSCCC(N)=NS(N)(=O)=O)cs1	BUN	16.6
COC1=CC(=O)C[C@@H](C)[C@]12Oc1c(Cl)c(OC)cc(OC)c1C2=O	BUN	15.6

====

Species: Rattus norvegicus
Assay: Open TG-GATES - Regimen: Single
Assay type: toxicity, organism-based, Sprague-Dawley
Design: regimen Single, gender Male, age 6 weeks
Settings: in vivo, po, 100 mg/kg, 9 h, tissue Plasma, route gavage, dose level Low
Reported Na by item:

COMPOUND	READING_UNIT	Na
CCOC(=O)CCC(=O)O[C@H]1[C@H](O[C@@H]2[C@@H](C)[C@H](O[C@H]3C[C@@](C)(OC)[C@@H](O)[C@H](C)O3)[C@@H](C)C(=O)O[C@H](CC)[C@@](C)(O)[C@H](O)[C@@H](C)C(=O)[C@H](C)C[C@@]2(C)O)O[C@H](C)C[C@@H]1N(C)C [ERYTHROMYCIN ETHYLSUCCINATE]	meq/L	138.6
NC(N)=Nc1nc(CSCCC(N)=NS(N)(=O)=O)cs1 [FAMOTIDINE]	meq/L	141
COC1=CC(=O)C[C@@H](C)[C@]12Oc1c(Cl)c(OC)cc(OC)c1C2=O [GRISEOFULVIN]	meq/L	142
COc1ccc2[nH]c([S+]([O-])Cc3ncc(C)c(OC)c3C)nc2c1 (centres undefined) [OMEPRAZOLE]	meq/L	140

====

Species: Rattus norvegicus
Experiment: Open TG-GATES - Regimen: Single
Type: toxicity, organism-based, Sprague-Dawley
Design: regimen Single, gender Male, age 6 weeks
Settings: in vivo, po, 100 mg/kg, 9 h, tissue Plasma, route gavage, dose level Low
OBSERVABLE: LDH (IU/L)

COMPOUND	MEASURED_RESULT
NC(N)=Nc1nc(CSCCC(N)=NS(N)(=O)=O)cs1	135.4
COc1ccc2[nH]c([S+]([O-])Cc3ncc(C)c(OC)c3C)nc2c1 (centres undefined)	171.6
CCOC(=O)CCC(=O)O[C@H]1[C@H](O[C@@H]2[C@@H](C)[C@H](O[C@H]3C[C@@](C)(OC)[C@@H](O)[C@H](C)O3)[C@@H](C)C(=O)O[C@H](CC)[C@@](C)(O)[C@H](O)[C@@H](C)C(=O)[C@H](C)C[C@@]2(C)O)O[C@H](C)C[C@@H]1N(C)C [ERYTHROMYCIN ETHYLSUCCINATE]	145.6
COC1=CC(=O)C[C@@H](C)[C@]12Oc1c(Cl)c(OC)cc(OC)c1C2=O	101
